- TESTED TARGET: T1, human IL-11 (human, UniProt P20809 22-199)
- T1 sequence: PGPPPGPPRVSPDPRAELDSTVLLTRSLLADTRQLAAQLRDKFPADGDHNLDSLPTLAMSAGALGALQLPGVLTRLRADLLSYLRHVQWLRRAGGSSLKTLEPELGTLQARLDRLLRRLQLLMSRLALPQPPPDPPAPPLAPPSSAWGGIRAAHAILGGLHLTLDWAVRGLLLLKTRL
- METHOD DESCRIPTION: cell-based or functional assay
The label Condition met is reserved for RGA IC50 strictly under 3 nM; Condition not met covers values equal to or above it.

Input: A record lists TPP-26319 (antibody, V domains shown) VH: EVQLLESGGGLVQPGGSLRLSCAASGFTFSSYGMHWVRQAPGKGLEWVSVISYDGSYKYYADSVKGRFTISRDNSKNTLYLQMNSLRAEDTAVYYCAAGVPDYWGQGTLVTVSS VL: QSVLTQPPSASGTPGQRVTISCTGSSSNIGAGYDVHWYQQLPGTAPKLLIYSNNEKPSGVPDRFSGSKSGTSASLAISGLRSEDEADYYCAAWDDSLNGPVFGGGTKLTVL . Is its RGA IC50 below 3 nM?
Output: Condition not met

Input: Here's an entry: TPP-26294 (antibody, V domains shown) VH: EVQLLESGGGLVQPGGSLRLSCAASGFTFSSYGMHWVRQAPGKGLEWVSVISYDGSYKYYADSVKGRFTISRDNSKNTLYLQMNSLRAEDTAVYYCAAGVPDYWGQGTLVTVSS VL: QSVLTQPPSASGTPGQRVTISCTGSSSNIGAAYDVHWYQQLPGTAPKLLIYSNNERPSGVPDRFSGSKSGTSASLAISGLRSEDEADYYCAAWDDSLNGPVFGGGTKLTVL . Is its RGA IC50 below 3 nM?
Output: Condition not met

Input: Confirm or reject: RGA IC50 of TPP-26309 (antibody, V domains shown) VH: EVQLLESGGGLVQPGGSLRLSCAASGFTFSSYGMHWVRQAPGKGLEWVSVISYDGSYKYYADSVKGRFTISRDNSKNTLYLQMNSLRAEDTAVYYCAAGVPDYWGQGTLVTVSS VL: QSVLTQPPSASGTPGQRVTISCTGSSSNIGAGYDVHWYQQLPGTAPKLLIYSNNERPSGVPDRFSGSKSGTSASLAISGLRSEDEADYYCAAWDFSLNGPVFGGGTKLTVL lies strictly below 3 nM
Output: Condition met

Input: Field: below-cutoff. Rule: recorded RGA IC50 strictly less than 3 nM. Subject: TPP-26301 (antibody, V domains shown) VH: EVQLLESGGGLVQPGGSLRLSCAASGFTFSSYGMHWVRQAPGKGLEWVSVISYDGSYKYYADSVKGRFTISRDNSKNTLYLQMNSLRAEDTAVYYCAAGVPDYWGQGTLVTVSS VL: QSVLTQPPSASGTPGQRVTISCTGSSSNIGADYDVHWYQQLPGTAPKLLIYSNNERPSGVPDRFSGSKSGTSASLAISGLRSEDEADYYCAAWDDSLNGPVFGGGTKLTVL
Output: Condition met

Input: Quick check: RGA IC50 of TPP-26326 (antibody, V domains shown) VH: EVQLLESGGGLVQPGGSLRLSCAASGFTFSYYGMHWVRQAPGKGLEWVSVISYDGSYKYYADSVKGRFTISRDNSKNTLYLQMNSLRAEDTAVYYCAAGVPDYWGQGTLVTVSS VL: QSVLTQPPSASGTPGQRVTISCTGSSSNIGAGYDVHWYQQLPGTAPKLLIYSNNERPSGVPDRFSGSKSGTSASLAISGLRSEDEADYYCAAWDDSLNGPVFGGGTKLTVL under 3 nM?
Output: Condition not met
